# EXPERIMENTAL_PROTOCOL: Selectivity ratio of CC50 for MDCK cells to EC50 for Influenza A virus (A/WSN/33)
# Format: toxicity
# RUN_PARAMETERS: dog, read-out: Ratio CC50/EC50
ENDPOINT_LABEL: selectivity ratio

C=C(CC(=O)Nc1cc(Cl)ccc1F)C(=O)Nc1cc(Cl)ccc1F: 111
C=C(CC(=O)Nc1cc(C(F)(F)F)ccc1F)C(=O)Nc1cc(C(F)(F)F)ccc1F: 136
C=C(CC(=O)Nc1cc(F)ccc1F)C(=O)Nc1cc(F)ccc1F: 26
O=C(/C=C\n1cnc(-c2cc(C(F)(F)F)cc(C(F)(F)F)c2)n1)NNc1ccccn1 [VERDINEXOR]: 9.69

* * *

# EXPERIMENTAL_PROTOCOL: Cytotoxicity against MDCK cells assessed as cell death after 72 hrs by MTT assay
# Type: cell-based, Canis lupus familiaris
# RUN_PARAMETERS: dog
Known CC50 at 72 h of a selection of compounds
ENDPOINT_LABEL: CC50 at 72 h

C=C(CC(=O)Nc1cc(F)ccc1F)C(=O)Nc1cc(F)ccc1F: 32.8 µM
C=C(CC(=O)Nc1cc(F)ccc1C(F)(F)F)C(=O)O: > 110 µM
C=C(CC(=O)Nc1ccc(Cl)cc1F)C(=O)Nc1ccc(Cl)cc1F: > 110 µM
C=C(CC(=O)NCc1ccc(F)cc1F)C(=O)NCc1ccc(F)cc1F: > 110 µM
C=C(CC(=O)Nc1cc(Cl)ccc1F)C(=O)Nc1cc(Cl)ccc1F: 19.9 µM
C=C(CC(=O)Nc1ccc(Br)cc1F)C(=O)Nc1ccc(Br)cc1F: > 110 µM
C=C(CC(=O)Nc1cc(OC)ccc1F)C(=O)Nc1cc(OC)ccc1F: > 110 µM
C=C(CC(=O)Nc1ccc(F)cc1F)C(=O)Nc1ccc(F)cc1F: 84.7 µM
C=C(CC(=O)Nc1cccc(C(F)(F)F)c1)C(=O)O: > 110 µM
C=C(CC(=O)Nc1ccc(F)cc1Br)C(=O)Nc1ccc(F)cc1Br: > 110 µM
C=C(CC(=O)Nc1ccc(F)cc1C(F)(F)F)C(=O)Nc1ccc(F)cc1C(F)(F)F: > 110 µM
C=C(CC(=O)Nc1cc(C(F)(F)F)ccc1F)C(=O)O: > 110 µM
C=C(CC(=O)Nc1cc(Cl)ccc1F)C(=O)O: > 110 µM
C=C(CC(=O)Nc1ccc(F)cc1C(F)(F)F)C(=O)O: > 110 µM
O=C(/C=C\n1cnc(-c2cc(C(F)(F)F)cc(C(F)(F)F)c2)n1)NNc1ccccn1 [VERDINEXOR]: 31.8 µM
C=C(CC(=O)Nc1ccccc1C(F)(F)F)C(=O)O: > 110 µM
C=C(CC(=O)Nc1ccc(F)cc1F)C(=O)O: > 110 µM
C=C(CC(=O)Nc1cc(F)ccc1F)C(=O)O: > 110 µM
C=C(CC(=O)Nc1ccc(Br)cc1Br)C(=O)Nc1ccc(Br)cc1Br: > 110 µM
C=C(CC(=O)Nc1ccc(Cl)cc1F)C(=O)O: > 110 µM
C=C(CC(=O)Nc1ccc(OC)cc1F)C(=O)Nc1ccc(OC)cc1F: > 110 µM
C=C(CC(=O)Nc1ccccc1C(F)(F)F)C(=O)Nc1ccccc1C(F)(F)F: > 110 µM
C=C(CC(=O)Nc1ccc(C(F)(F)F)cc1F)C(=O)Nc1ccc(C(F)(F)F)cc1F: > 110 µM
C=C(CC(=O)NCc1cc(F)ccc1F)C(=O)NCc1cc(F)ccc1F: > 110 µM
C=C(CC(=O)Nc1ccc(C(F)(F)F)cc1F)C(=O)O: > 110 µM
C=C(CC(=O)Nc1cc(C(F)(F)F)ccc1F)C(=O)Nc1cc(C(F)(F)F)ccc1F: 15 µM
CCC(=C/[C@H](C)C/C=C/C(C)=C/[C@@H](C)C(=O)[C@@H](C)[C@H](O)[C@@H](C)C/C(C)=C/C(=O)O)/C=C/[C@@H]1OC(=O)C=C[C@@H]1C [LEPTOMYCIN B]: > 0.88 µM
